The reported measurements were obtained from PubChem BioAssay AID540364.

assay: GAA850 frataxin promoter reporter upregulation – cell-based, luciferase luminescence, HEK293 lucGAA850, primary screen (AID 540364); details: HEK293 lucGAA850 FXN promoter luciferase reporter, 24 h; at 6 µM; active compounds read high;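 also: 0% = DMSO wells and 100% = 10 µM SAHA wells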
The whole screen tested about 360,000 compounds, of which about 2,000 (0.56%) were called active. This is one part of a sample in which actives are shown more often than they occur.
READOUT KIND: activation

Query: Give reported activation value for CC(C)(C)c1ccc(OC(=O)N2CCCCC2)cc1
Reply: 8.59% (active)

Query: Give reported activation value for COc1ccc(Br)cc1CNCCc1cccc(Cl)c1
Reply: -0.31% (inactive)

Query: Give reported activation value for O=C1C2(Cl)C3(Cl)C4(Cl)C(Cl)(Cl)C5(Cl)C3(Cl)C1(Cl)C5(Cl)C24Cl (stereo not drawn)
Reply: 9.58% (active)

Query: Give reported activation value for CN1CCN(C(=O)COc2ccc(C(C)(C)C)cc2Br)CC1
Reply: -0.38% (inactive)

Query: Give reported activation value for CC(=C1C(=O)c2ccccc2C1=O)N1CCN(CCN=Cc2c(O)n(C)c(=O)n(C)c2=O)CC1
Reply: 1.17% (inactive)

Query: Give reported activation value for COc1ccc(-n2c(-c3ccccc3)nc3ccccc3c2=O)cc1
Reply: 0.96% (inactive)

Query: Give reported activation value for O=C(Nc1cccc(OC(=O)N2CCCCC2)c1)N1CCOCC1
Reply: -1.14% (inactive)

Query: Give reported activation value for NCC(O)c1ccc(O)cc1 (stereo not drawn)
Reply: 2.36% (inactive)
